system: Escherichia coli TOP10; experiment: shrunken log2 fold change of peptide-encoding DNA abundance (4.5 h post-induction vs induction); higher = less antimicrobial activity (less host growth inhibition); settings: time post-induction: 4.5 h; library: site-saturation at positions 5, 18, 19, 20;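 further: peptides expressed intracellularly from a pBAD plasmid library in pooled LB shake-flask culture, induced with 0.3% L-arabinose, DNA abundance read by NGS, three biological replicates, DESeq2 with apeglm shrinkage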
valueType: shrunken log2 fold change
Note: the reply should be a number with no unit written.

For this sequence ( RRIRGRPPRLPRPRPRPREMPRP ), measured shrunken log2 fold change is 1.2

For this sequence ( RRIRNRPPRLPRPRPRPDDLPRP ), measured shrunken log2 fold change is -0.000687

For this sequence ( RRIRDRPPRLPRPRPRPGDLPRP ), measured shrunken log2 fold change is 0.178

For this sequence ( RRIRWRPPRLPRPRPRPWNGPRP ), measured shrunken log2 fold change is 0.0206

For this sequence ( RRIRHRPPRLPRPRPRPHFKPRP ), measured shrunken log2 fold change is -0.455

For this sequence ( RRIRVRPPRLPRPRPRPITYPRP ), measured shrunken log2 fold change is -0.911

For this sequence ( RRIRDRPPRLPRPRPRPLDAPRP ), measured shrunken log2 fold change is 0.0602

For this sequence ( RRIRWRPPRLPRPRPRPVPNPRP ), measured shrunken log2 fold change is 0.0838

For this sequence ( RRIRVRPPRLPRPRPRPRVLPRP ), measured shrunken log2 fold change is 0.0884

For this sequence ( RRIRRRPPRLPRPRPRPNAGPRP ), measured shrunken log2 fold change is 0.0188

For this sequence ( RRIRIRPPRLPRPRPRPFDLPRP ), measured shrunken log2 fold change is -0.348

For this sequence ( RRIRSRPPRLPRPRPRPNTTPRP ), measured shrunken log2 fold change is -0.194

For this sequence ( RRIRARPPRLPRPRPRPGGMPRP ), measured shrunken log2 fold change is 0.337
